Values were extracted from patent US12509451B2.

target: recombinant human CD38 Protein (Homo sapiens); construct: purchased R&D System; test: Fluorescence-based NAD+ cyclase activity assay with human recombinant CD38 protein (Assay 2); assay type: biochemical; details: read-out: Assay 2 Arithmetic mean IC50
Sequence (P28907 whole entry): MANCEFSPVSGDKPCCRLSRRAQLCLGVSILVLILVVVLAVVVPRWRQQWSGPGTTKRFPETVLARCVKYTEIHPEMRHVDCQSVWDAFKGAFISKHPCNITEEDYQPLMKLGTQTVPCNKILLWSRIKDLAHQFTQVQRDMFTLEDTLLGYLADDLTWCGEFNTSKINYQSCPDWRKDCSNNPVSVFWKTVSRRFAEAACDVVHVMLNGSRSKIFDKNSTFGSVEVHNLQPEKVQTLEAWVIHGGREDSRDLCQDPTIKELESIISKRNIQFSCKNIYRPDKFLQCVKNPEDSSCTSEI
Please respond with reported IC50 for every item in the list.

State, for recombinant human CD38 Protein (Homo sapiens), measured IC50 of the compound listed here: O=C(Nc1cccnc1)c1ccc(F)c(-n2ccnc2)n1 [Compound 61]
1000 to 10000 nM

Please report IC50 with recombinant human CD38 Protein (Homo sapiens) for item COc1ccc(NC(=O)c2cccc(-n3ccnc3)n2)cn1 [Compound 18] .
1000 to 10000 nM

Name the value of IC50 reported for O=C(Nc1cccnc1)c1cccc(-n2ccnc2)n1 [Compound 20] when tested on recombinant human CD38 Protein (Homo sapiens).
1000 to 10000 nM

Lab note: recombinant human CD38 Protein (Homo sapiens) assay, enter IC50 for CNC(=O)c1ccc(NC(=O)c2cc(C)cc(-n3ccnc3)n2)cn1 [Compound 57] here
1 to 50 nM

Output reported IC50 of the compound Cc1cc(C(=O)Nc2ccncc2)nc(-c2nccn2C)c1 [Compound 45] on recombinant human CD38 Protein (Homo sapiens).
51 to 1000 nM

// output IC50; input Cc1cc(C(=O)Nc2ccncc2)nc(-n2ccnc2)c1 [Compound 52] ; system recombinant human CD38 Protein (Homo sapiens)
1 to 50 nM

Give reported IC50 for Cn1cncc1-c1cccc(C(=O)Nc2cccnc2)n1 [Compound 42] (recombinant human CD38 Protein (Homo sapiens))
1000 to 10000 nM

Provide IC50, system recombinant human CD38 Protein (Homo sapiens), entry CCOc1cc(C(=O)Nc2ccnc(C(F)(F)F)c2)nc(-n2ccnc2)n1 [Compound 38]
51 to 1000 nM

Under recombinant human CD38 Protein (Homo sapiens), report IC50 for O=C(Nc1ccnc(F)c1)c1cccc(-n2ccnc2)n1 [Compound 8]
51 to 1000 nM

Name the recorded IC50 of Cc1cc(C(=O)Nc2ccncc2)nc(-n2ccnc2)n1 [Compound 50] , assay system recombinant human CD38 Protein (Homo sapiens).
1 to 50 nM

State IC50 (recombinant human CD38 Protein (Homo sapiens)) of O=C(Nc1ccncc1)c1cccc(-n2ccnc2)n1 [Compound 13] .
51 to 1000 nM

Provide IC50, tested on recombinant human CD38 Protein (Homo sapiens), for COc1cc(C(=O)Nc2ccnc(C(F)(F)F)c2)nc(-n2ccnc2)n1 [Compound 37] .
51 to 1000 nM

With recombinant human CD38 Protein (Homo sapiens) as the test system, provide measured IC50 for this compound: CCOC(=O)c1cc(NC(=O)c2cccc(-n3ccnc3)n2)ccn1 [Compound 6]
51 to 1000 nM
